tested on: HT29 colon; assay: NCI-60 one-dose screen, 48 h (100 = growth as untreated, 0 = no growth, -100 = all killed); details: 10 µM unless noted
This is part of a sample that, as a whole, favours compounds with a hit. Of some 83,000 tested, about 20% had one in any assay.
assay.endpoint: growth (%)
One number for each entry, in %.

>>> print(df.to_string())
                                   compound    val
0  CC(=C(c1ccc(OCCN2CCCCC2)cc1)c1ccc(OCCN2CCCCC2)cc1)c1ccc(Cl)cc1  -86.3
1  CCN1C(=O)N(CC)C2C1NN=c1s/c(=C3\C(=O)N(CCC(C)C)c4ccccc43)c(=O)n12 (stereo not given)   4.19
2  Cc1nc2sc(C(=O)Nc3cccc(Br)c3C)c(N)c2cc1C(O)c1ccccc1 (stereo not given)   9.11
3  O=C(Nc1ncc(Cc2cc(C(F)(F)F)ccc2Cl)s1)c1cccs1   18.6
4   Oc1c(CN2CCOCC2)cc(COCc2ccccc2)c2cccnc12   88.2

For the 5 compounds below, give their growth values.
1. COc1ccc(C(=O)c2cc3c(N)c(C(=O)Nc4ccccc4)sc3nc2C)cc1
2. COc1ccc2c(c1)/C(=N/c1n[nH]c(=S)s1)C(=O)N2
3. COc1ccc(C(O)c2cc3c(N)c(C(=O)Nc4cccc(Cl)c4C)sc3nc2C)cc1 (stereo not given)
4. CN1CCN(CCOc2ccc(-c3cnc4c(-c5cccc(F)c5F)cnn4c3)cc2)CC1
5. Oc1ccc(/C=C/c2ccc(O)cc2)cc1

-- reply
14.9
105
-7.84
-46.1
101
